melting point values for the molecules below.

Below, 3 molecules whose answers are already recorded.
{"molecule": "COc1ccc(C2CC(c3ccc(-n4cccc4)cc3)=NN2C=O)cc1 (centres unmarked) [Compound 4g]", "result": "112 to 114 °C"}
{"molecule": "O=CN1N=C(c2ccc(-n3cccc3)cc2)CC1c1ccco1 (centres unmarked) [Compound 4o]", "result": "152 to 154 °C"}
{"molecule": "O=CN1N=C(c2ccc(-n3cccc3)cc2)CC1c1c(Cl)cccc1Cl (centres unmarked) [Compound 4e]", "result": "208 to 210 °C"}

Need melting point, item O=CN1N=C(c2ccc(-n3cccc3)cc2)CC1c1cccc(Cl)c1Cl (centres unmarked) [Compound 4c] 163 to 165 °C

Need melting point, item O=CN1N=C(c2ccc(-n3cccc3)cc2)CC1c1ccc(Cl)cc1Cl (centres unmarked) [Compound 4d] 228 to 230 °C

Need melting point, item Cc1ccc(C2CC(c3ccc(-n4cccc4)cc3)=NN2C=O)cc1 (centres unmarked) [Compound 4f] 148 to 150 °C

Need melting point, item COc1ccc(C2CC(c3ccc(-n4cccc4)cc3)=NN2C=O)cc1OC (centres unmarked) [Compound 4j] 133 to 135 °C

Need melting point, item O=CN1N=C(c2ccc(-n3cccc3)cc2)CC1c1cccc(Br)c1 (centres unmarked) [Compound 4m] 168 to 170 °C

Need melting point, item CC(C)c1ccc(C2CC(c3ccc(-n4cccc4)cc3)=NN2C=O)cc1 (centres unmarked) [Compound 4l] 140 to 142 °C

Need melting point, item O=CN1N=C(c2ccc(-n3cccc3)cc2)CC1c1ccc(Cl)cc1 (centres unmarked) [Compound 4b] 168 to 170 °C

Need melting point, item O=CN1N=C(c2ccc(-n3cccc3)cc2)CC1c1ccccc1 (centres unmarked) [Compound 4a] 178 to 180 °C

Need melting point, item O=CN1N=C(c2ccc(-n3cccc3)cc2)CC1c1cccc(Oc2ccccc2)c1 (centres unmarked) [Compound 4n] 128 to 130 °C

Need melting point, item COc1ccc(C2CC(c3ccc(-n4cccc4)cc3)=NN2C=O)c(OC)c1 (centres unmarked) [Compound 4i] 160 to 162 °C

Need melting point, item COc1cccc(C2CC(c3ccc(-n4cccc4)cc3)=NN2C=O)c1 (centres unmarked) [Compound 4h] 158 to 160 °C

Sourced from paper PMC5676022
